Please provide measured recombinant UMI read abundance (log10) for the entries that follow.
# Run Description: recombinant UMI read abundance after kanamycin selection (control-corrected) (log10(CPM+1)); higher = more efficient recombination; extreme values may be limits of the assay; sequences stand for … in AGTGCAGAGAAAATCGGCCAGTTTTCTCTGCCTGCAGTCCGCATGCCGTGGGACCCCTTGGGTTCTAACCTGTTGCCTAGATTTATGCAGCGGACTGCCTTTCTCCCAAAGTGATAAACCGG…AGGTTGGTTTCACT; site = the 11-nt donor;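 also: IS621 bridge recombinase in Escherichia coli cells against a fixed T5 target plasmid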
Please give the numeric answer without any surrounding text.

Query: Query (sequence): ACCCCAACATGGACCGGTTTTCCCGGTAATCCGTATTTGGT (site ACCCCAACTAC) ; field requested: recombinant UMI read abundance (log10)
Reply: 0.756

Query: Query (sequence): GCGAAGGCATGGACCGGTTTTCCCGGTAATCCGTATTTGGG (site GCGAAGTCTCC) ; field requested: recombinant UMI read abundance (log10)
Reply: 0.779

Query: Query (sequence): GAGGGTACATGGACCGGTTTTCCCGGTAATCCGTATTTGGC (site GAGGGTACTGC) ; field requested: recombinant UMI read abundance (log10)
Reply: 2.1

Query: Query (sequence): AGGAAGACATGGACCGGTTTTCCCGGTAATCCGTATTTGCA (site TGGAAGACTCG) ; field requested: recombinant UMI read abundance (log10)
Reply: 0.00521

Query: Query (sequence): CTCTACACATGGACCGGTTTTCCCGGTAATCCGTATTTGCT (site CCCTACACTAG) ; field requested: recombinant UMI read abundance (log10)
Reply: 2.09

Query: Query (sequence): GTAGGTACATGGACCGGTTTTCCCGGTAATCCGTATTTGAG (site GTAGGTACTTT) ; field requested: recombinant UMI read abundance (log10)
Reply: 0.806

Query: Query (sequence): TTCCCGCCATGGACCGGTTTTCCCGGTAATCCGTATTTGAA (site TTCCCGCCTTT) ; field requested: recombinant UMI read abundance (log10)
Reply: 0.0206

Query: Query (sequence): GTCTTGACATGGACCGGTTTTCCCGGTAATCCGTATTTGTG (site GTCTTGACTCA) ; field requested: recombinant UMI read abundance (log10)
Reply: 0.296

Query: Query (sequence): GATTTGACATGGACCGGTTTTCCCGGTAATCCGTATTTGAC (site GATTAGACTGT) ; field requested: recombinant UMI read abundance (log10)
Reply: 0

Query: Query (sequence): CCGTCATCATGGACCGGTTTTCCCGGTAATCCGTATTTGCT (site CCGTCATCTAG) ; field requested: recombinant UMI read abundance (log10)
Reply: 0

Query: Query (sequence): CTCCATACATGGACCGGTTTTCCCGGTAATCCGTATTTGAG (site CTCCCTACTCT) ; field requested: recombinant UMI read abundance (log10)
Reply: 0.0258

Query: Query (sequence): GTTAGAACATGGACCGGTTTTCCCGGTAATCCGTATTTGGG (site GTTAGAACTTC) ; field requested: recombinant UMI read abundance (log10)
Reply: 0.00779

Query: Query (sequence): GGGGCAACATGGACCGGTTTTCCCGGTAATCCGTATTTGCA (site GGGGCACCTTG) ; field requested: recombinant UMI read abundance (log10)
Reply: 0.00712

Query: Query (sequence): CTAGTAGCATGGACCGGTTTTCCCGGTAATCCGTATTTGAC (site CTAGTATCTGT) ; field requested: recombinant UMI read abundance (log10)
Reply: 2.74

Query: Query (sequence): CGGCATCCATGGACCGGTTTTCCCGGTAATCCGTATTTGTT (site CGGTATCCTAA) ; field requested: recombinant UMI read abundance (log10)
Reply: 0.0136

Query: Query (sequence): CTCGAACCATGGACCGGTTTTCCCGGTAATCCGTATTTGAC (site CTCGAACCTGT) ; field requested: recombinant UMI read abundance (log10)
Reply: 0

Query: Query (sequence): TGCACCGCATGGACCGGTTTTCCCGGTAATCCGTATTTGCG (site TTCACCGCTCG) ; field requested: recombinant UMI read abundance (log10)
Reply: 0.00682

Query: Query (sequence): GTTATAACATGGACCGGTTTTCCCGGTAATCCGTATTTGGC (site GTTAAAACTGC) ; field requested: recombinant UMI read abundance (log10)
Reply: 0
